protocol description: Nonenzymatic decomposition / stability of NADP-dihydrofinasteride adduct
Format: physicochemical
condition notes: pH 7.2, 37° C.; read-out: halflife of nonenzymatic breakdown (converted)
measured attribute: half-life (days)
Form entry: value (days) — number only.

Request: Recorded half-life for CC(C)(C)NC(=O)[C@H]1CC[C@H]2[C@@H]3CC[C@H]4NC(=O)C(C5C=CN([C@@H]6O[C@H](COP(=O)(O)OP(=O)(O)OC[C@H]7O[C@@H](n8cnc9c(N)ncnc98)[C@H](OP(=O)(O)O)[C@@H]7O)[C@@H](O)[C@H]6O)C=C5C(N)=O)C[C@]4(C)[C@H]3CC[C@]12C (stereo partly shown) [NADP-dihydrofinasteride adduct] , please?
Result: 11.1

----------
measured on: human type 1 5α-reductase (Homo sapiens, UniProt P18405)
Construct: made in house
Sequence (P18405 whole entry): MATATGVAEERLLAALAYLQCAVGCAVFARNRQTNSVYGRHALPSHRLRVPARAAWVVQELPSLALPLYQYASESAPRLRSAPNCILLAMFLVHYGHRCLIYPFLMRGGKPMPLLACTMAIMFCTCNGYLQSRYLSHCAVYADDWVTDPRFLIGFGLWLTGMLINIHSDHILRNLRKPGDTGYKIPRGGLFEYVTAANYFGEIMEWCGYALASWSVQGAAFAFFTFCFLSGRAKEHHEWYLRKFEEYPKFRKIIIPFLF
protocol description: Inhibition of human type 1 enzyme (Example 11)
Type: biochemical
measured attribute: selectivity for human 5α-reductase type 1

Observe how each entry below is paired with its result.
* CC1C[C@H]2NC(=O)C=C[C@]2(C)[C@H]2CC[C@]3(C)CC(Oc4ccc(Cl)cc4)C[C@H]3[C@H]12 (stereo partly shown) | 3,300
* COC(C)C1CC[C@H]2[C@@H]3CC[C@H]4NC(=O)C=C[C@]4(C)[C@H]3CC[C@]12C (stereo partly shown) | 1,600

Request: Any idea what selectivity for human 5α-reductase type 1 came out for C[C@]12C=CC(=O)N[C@@H]1CC[C@@H]1[C@@H]2CC[C@]2(C)C(CCC(=O)Nc3ccncc3)CC[C@@H]12 (stereo partly shown) on human type 1 5α-reductase (Homo sapiens, UniProt P18405)?
Result: 1,200

Request: What value of selectivity for human 5α-reductase type 1 on human type 1 5α-reductase (Homo sapiens, UniProt P18405) does C[C@]12C=CC(=O)N[C@@H]1CC[C@@H]1[C@@H]2CC[C@]2(C)C(CC#N)CC[C@@H]12 (stereo partly shown) have?
Result: 1,200

----------
measured on: human type 2 5α-reductase (Homo sapiens, UniProt P31213)
Construct: host or cells: native human prostate tissue or recombinant from a baculovirus expression system; considered interchangeable
Sequence (P31213 whole entry): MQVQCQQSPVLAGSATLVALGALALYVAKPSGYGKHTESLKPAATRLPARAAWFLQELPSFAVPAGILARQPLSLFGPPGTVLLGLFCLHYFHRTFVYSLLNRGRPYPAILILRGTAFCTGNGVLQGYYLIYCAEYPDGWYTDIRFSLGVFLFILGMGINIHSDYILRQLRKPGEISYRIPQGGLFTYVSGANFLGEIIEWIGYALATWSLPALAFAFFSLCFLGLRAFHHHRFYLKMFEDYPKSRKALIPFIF
protocol description: Structural requirements / inhibition constants and IC50 on type 2 enzyme (Examples 9 and 11)
Type: biochemical
condition notes: Table 1, pH 5.5, 37° C., no time-dependent inhibition; read-out: Ki (apparent)
measured attribute: pKi
Worth noting: pKi values are minus log10 of concentrations stated in mol/L.

Known pKi results, listed for orientation:
- CN1C(=O)C=C[C@]2(C)[C@H]3CC[C@]4(C)[C@@H](C(=O)C5CCCCC5)CC[C@H]4[C@@H]3CC[C@@H]12: 7.89
- C[C@]12CCC(=O)N[C@@H]1CC[C@@H]1[C@@H]2CC[C@]2(C)[C@@H](C(=O)C3CCCCC3)CC[C@@H]12: 9.52
- CN1C(=O)CC[C@]2(C)[C@H]3CC[C@]4(C)[C@@H](C(=O)C5CCCCC5)CC[C@H]4[C@@H]3CC[C@@H]12: 9.70
- CN1C(=O)CC[C@]2(C)[C@H]3CC[C@]4(C)[C@@H](C(=O)NC5C6CC7CC(C6)CC5C7)CC[C@H]4[C@@H]3CC[C@@H]12 (some centres unmarked): 9.30

Alright, here's another compound for you.
Request: Can you share its pKi? I mean this compound: CC(C)(C)NC(=O)[C@H]1CC[C@H]2[C@@H]3CC[C@H]4NC(=O)CC[C@]4(C)[C@H]3CC[C@]12C
Result: 8.10
